Numbers sourced from ChEMBL document CHEMBL2163240.

Some molecules, each annotated with its measured IC50.
test: Cytotoxicity against human MDA-MB-435S cells after 24 to 72 hrs by MTT assay; format: functional, cell-based
Please give a number only; it is taken to be in µM.

stdin: Would you mind telling me what IC50 value was observed for `CC(=O)C[C@]12C(=O)c3cccc(O)c3C(=O)[C@H]1[C@@]1(O[C@H](C)CC(=O)[C@H]1O)O[C@@H]1CC(=O)O[C@@H]12` ?
stdout: 0.69

Moving on to another molecule below.
stdin: Look up IC50: `CC(=O)C[C@]12C(=O)c3cccc(O)c3C(=O)[C@H]1[C@@]1(O[C@H](C)C[C@H](O)[C@H]1O)O[C@@H]1CC(=O)O[C@@H]12`
stdout: 0.82
